Test system: Caco-2
Experiment: cell viability relative to DMSO; higher = less toxic
Conditions: 72 h; 10 nM
cell viability: recorded values
Record the value in %, omitting the unit from your answer.

COc1oc(=O)c2cc(N)ccc2c1Cl [JLK-6]; 94.6
O=C1Cc2c([nH]c3ccc(Br)cc23)-c2ncccc2N1 [1-azakenpaullone]; 99.7
FCc1ccc(OCCOc2ccc(Cl)cc2Cl)c(Cl)n1; 92.8
O=C(O)c1ccc(-c2c[nH]c3ncc(-c4ccccc4)cc23)cc1C1CCCC1; 107
O=S1(=O)CCN(CN2CCS(=O)(=O)NC2)CN1 [taurolidine]; 118

[ask] Would you kindly share the measured cell viability for C=CCN1CCc2nc(N)sc2CC1 [talipexole] ?
[reply] 104

[ask] Then CC(C)(N)CC12CC3CC(CC(C3)C1)C2 [somantadine] ?
[reply] 95.9

[ask] Now the molecule CC(C)[C@@H]1CC[C@@H](C)C[C@@H]1P(=O)(c1ccccc1)c1ccccc1 [DPO-1]
[reply] 102

[ask] Cool, now CCCC[C@H](NC(C)=O)C(=O)N[C@H]1CC(=O)NCCCC[C@@H](C(=O)O)NC(=O)[C@H](Cc2c[nH]c3ccccc23)NC(=O)[C@H](CCCNC(=N)N)NC(=O)[C@@H](Cc2ccccc2)NC(=O)[C@H](Cc2c[nH]cn2)NC1=O [bremelanotide]
[reply] 94.4

###

Test system: A549-ACE2
Assay: drug-induced phospholipidosis relative to tamoxifen; higher = more phospholipidosis
Conditions: 3.33333 µM; 72 h
measurement-kind: drug-induced phospholipidosis
In your response, put the unit directly after the numeric value.

CCCOC(C(=O)OC1CCN(C)CC1)(c1ccccc1)c1ccccc1; 43.7%
c1ccc(-c2nn3c(c2-c2ccnc4cc(OCCN5CCOCC5)ccc24)CCC3)nc1; 7.52%
OCCN1C[C@H](O)[C@@H](O)[C@H](O)[C@H]1CO; 1.06%

Read the next record carefully.
[ask] Recorded drug-induced phospholipidosis for "OC1(c2ccc(Cl)c(C(F)(F)F)c2)CCN(CCCC(c2ccc(F)cc2)c2ccc(F)cc2)CC1" , please?
[reply] 77.7%

###

Tested on: HepG2
Assay: relative viability EC50 (midpoint between 100% and the lowest measured viability); higher = less toxic
Details: 72 h
measurement-kind: relative viability EC50

Example entries begin here.
CC[C@@](C)(Nc1ccnc(-c2c[nH]c3ncccc23)n1)C(=O)NCC(F)(F)F; > 10 µM
O=C(CBr)N1CC([N+](=O)[O-])([N+](=O)[O-])C1; > 10 µM

[ask] Would you kindly share the measured relative viability EC50 for C[C@@H](O)[C@H]1C(=O)N2C(C(=O)[O-])=C(SC3Cn4cnc[n+]4C3)[C@H](C)[C@H]12 (stereo partly specified) ?
[reply] > 10 µM

[ask] And then "Cc1nc(N)sc1-c1ccnc(Nc2ccc(N3CCOCC3)cc2)n1" , what is it?
[reply] 1.38 µM

[ask] Follow-up item: "CCCOC(C(=O)OC1CCN(C)CC1)(c1ccccc1)c1ccccc1"
[reply] > 10 µM

[ask] Next entry: Cc1oc(-c2ccccc2)nc1CCOc1ccc(CC2SC(=O)NC2=O)c2sccc12 (stereo unspecified)
[reply] > 10 µM

[ask] Same read-out for "Cc1ncc([N+](=O)[O-])n1CCO" ?
[reply] > 10 µM

[ask] Now consider "O=C(c1ccc2nccnc2c1)N1CCCCC1" and answer again.
[reply] > 10 µM

[ask] Follow-up item: "C=CCN1C[C@H](C)N([C@H](c2ccc(C(=O)N(CC)CC)cc2)c2cccc(OC)c2)C[C@H]1C"
[reply] > 10 µM

[ask] Check "CC(C)CCC[C@@H](C)[C@H]1CC[C@H]2[C@@H]3CC=C4C[C@@H](O)CC[C@]4(C)[C@H]3CC[C@]12C" too.
[reply] > 10 µM

[ask] Queued: "C=CC1=C(C(=O)O)N2C(=O)[C@@H](NC(=O)/C(=N\O)c3csc(N)n3)[C@H]2SC1"
[reply] > 10 µM

[ask] Next entry: "CCc1nc(N)nc(N)c1-c1ccc(Cl)cc1"
[reply] > 10 µM

[ask] Okay, and "Oc1ccc2[nH]cc(C3=CCNCC3)c2n1" ?
[reply] > 10 µM

[ask] Another: N[C@@H](Cc1ccc(Cl)cc1)C(=O)O (racemic) [fenclonine-(+/-)]
[reply] > 10 µM

[ask] Also "O=C(NC1CCN(CCc2c[nH]c3ccccc23)CC1)c1ccccc1" , if possible.
[reply] > 10 µM

[ask] Try this molecule next: "CN(C)CCCO[C@@H]1[C@H]2OC(C)(C)O[C@H]2O[C@@H]1[C@H](O)CO"
[reply] > 10 µM

[ask] Next molecule up: "O=C[C@H](O)[C@@H](O)[C@H](O)CO"
[reply] > 10 µM

[ask] What do we get for "CC(=O)N[C@@H](Cc1ccc(O)cc1)C(=O)O" ?
[reply] > 10 µM

[ask] Now this one: "CCOC(=O)Nc1ccc2c(c1)N(C(=O)CCN1CCOCC1)c1ccccc1S2"
[reply] > 10 µM

[ask] Request: "CC(C)[C@H](O)C(=O)N[C@@H](C)C(=O)N[C@@H]1C(=O)N(C)CCc2ccccc21"
[reply] > 10 µM

[ask] Quick one: O=C(NCc1ccccc1)OCCO [buramate]
[reply] > 10 µM

###

Tested on: Calu-3
Assay: cell viability relative to DMSO; higher = less toxic
Details: 72 h; 1000 nM
measurement-kind: cell viability (%)
Numeric answer only, unit % assumed.

As a guide, the following entries are already answered.
O=C(c1cc(S(=O)(=O)Nc2ccccc2F)c(F)cc1Cl)N1CCN2CCC[C@@H]2C1 [ABT-639]; 106
N=C(N)NC(=O)c1cnn(-c2cccc3ncccc23)c1C1CC1 [zoniporide]; 94.5
CN1CCc2nc(C(=O)N[C@@H]3C[C@@H](C(=O)N(C)C)CC[C@@H]3NC(=O)C(=O)Nc3ccc(Cl)cn3)sc2C1 [edoxaban]; 98.3
O=c1[nH]cnc2c1ncn2[C@H]1CC[C@@H](CO)O1 [didanosine]; 106
COc1cc(C[C@H]2C(=O)OC[C@@H]2Cc2ccc(OC)c(OC)c2)ccc1O [arctigenin]; 97.9

[ask] GET /values?readout=cell viability&item= CC(C)(C)c1ccc(CN(Cc2cccc(OCC(=O)O)c2)S(=O)(=O)c2cccnc2)cc1 [evatanepag]
[reply] 99.7

[ask] Check O=C(O)C1=CCCN(CCOC(c2ccc(C(F)(F)F)cc2)c2ccc(C(F)(F)F)cc2)C1 [CI-966] too.
[reply] 98.5

[ask] CCCCCCCC/C=C\CCCCCCCC(=O)NCCc1ccc(O)c(O)c1 [OLDA] , same question.
[reply] 103

###

Tested on: Vero E6
Assay: cell viability relative to DMSO; higher = less toxic
Settings: 72 h; 100 nM
measurement-kind: cell viability (%)
Quick note: give the figure in %, leave out the unit.

Consider the following illustrative entries.
O=C1C=Cc2cc(Br)ccc2C1=O; 93.5
CN(C)NC(=O)CCC(=O)O [daminozide]; 97.1
CCCOC(C(=O)OC1CCN(C)CC1)(c1ccccc1)c1ccccc1; 105
Clc1ccc(CSC(Cn2ccnc2)c2ccc(Cl)cc2Cl)cc1 (centres undefined); 104
CC(C)[C@H](O)C(=O)N[C@@H](C)C(=O)N[C@@H]1C(=O)N(C)CCc2ccccc21; 99.9

[ask] Record request: cell viability value, item "Oc1c(I)cc(I)c2cccnc12"
[reply] 100

[ask] What would you report for "c1cnc(N2CCN(Cc3ccc4c(c3)OCO4)CC2)nc1" ?
[reply] 100

[ask] Same thing, different compound: "CN1CCc2nc(C(=O)N[C@@H]3C[C@@H](C(=O)N(C)C)CC[C@@H]3NC(=O)C(=O)Nc3ccc(Cl)cn3)sc2C1"
[reply] 94.8

[ask] Now the compound "CN(C)CC[C@@](O)(c1ccccc1)c1ccccc1Cl"
[reply] 99.5

[ask] Please give the result for NC(=O)CNCCC(c1ccccc1)c1ccccc1 [N20C] too.
[reply] 98.2

[ask] Try this compound too: "O=C1c2cccnc2OC[C@@H]2CCCN12"
[reply] 90.5

###

Tested on: Caco-2
Assay: cell viability relative to DMSO; higher = less toxic
Conditions: 72 h; 100 nM
Reported cell viability values for the following molecules.
Numbers only here, please. The scale is %.

Observe how each entry below is paired with its result.
CCN(CC)CCOC(=O)C(c1ccccc1)c1ccccc1 [adiphenine]; 95.1
CCCCc1nc(Cl)c(CO)n1Cc1ccc(-c2ccccc2-c2nnn[nH]2)cc1 [losartan]; 93.2
CC(C)(N)CC12CC3CC(CC(C3)C1)C2 [somantadine]; 104

// moving on: another record for cell viability
[ask] Could you share which cell viability value was measured for "CCOC(=O)c1ncc2[nH]c3ccc(OCc4ccccc4)cc3c2c1COC" ?
[reply] 90.6

###

Tested on: A549-ACE2 infected with SARS-CoV-2
Experiment: morphology score (similarity to uninfected cells); higher = more like uninfected cells
Settings: 0.3 µM; 24 h
Classify as follows. Reported morphology score greater than or equal to 0.09: MET. Reported morphology score below: NOT MET.

Solved entries (count: 4):
COc1cc(/C=C/C(=O)CC(=O)/C=C/c2ccc(O)c(OC)c2)ccc1O; NOT MET
O=Nc1ccc(O)c2ncccc12; NOT MET
CCN(CC)CCOc1ccc(/C(=C(\Cl)c2ccccc2)c2ccccc2)cc1; MET
CCCOC(C(=O)OC1CCN(C)CC1)(c1ccccc1)c1ccccc1; MET

Please examine the following record next.
[ask] Tell me whether morphology score is at least 0.09 here: "OCCN1C[C@H](O)[C@@H](O)[C@H](O)[C@H]1CO"
[reply] MET
